Parameter residual activity: see the listing below.
# SYSTEM_TESTED: Solute carrier organic anion transporter family member 1B1 (Homo sapiens, UniProt Q9Y6L6)
# MEASUREMENT_CONDITIONS: chinese hamster, cho, 10 µM

O=C(O)COc1cc(Cl)c(Cl)cc1Cl; 95.54%
CO[C@H]1C=C[C@@]23c4cc5c(cc4CN(C[C@@H]2O)[C@H]3C1)OCO5; 94.19%
CC1(C)[C@H](O)C[C@H](O)[C@@]2(C)[C@H]3CC[C@]4(C)[C@@H](c5ccoc5)OC(=O)[C@H]5O[C@]54[C@]3(C)[C@H](O)C[C@@H]12; 48%

Next compound, residual activity to be filled in.
Provide the documented residual activity with Solute carrier organic anion transporter family member 1B1 (Homo sapiens, UniProt Q9Y6L6) as the system for `N#Cc1c(Cl)cccc1Cl` 87.7%

----------
Each record here notes measured residual activity.
# SYSTEM_TESTED: Solute carrier organic anion transporter family member 1B1 (Homo sapiens, UniProt Q9Y6L6)
# Sequence (Q9Y6L6 whole entry): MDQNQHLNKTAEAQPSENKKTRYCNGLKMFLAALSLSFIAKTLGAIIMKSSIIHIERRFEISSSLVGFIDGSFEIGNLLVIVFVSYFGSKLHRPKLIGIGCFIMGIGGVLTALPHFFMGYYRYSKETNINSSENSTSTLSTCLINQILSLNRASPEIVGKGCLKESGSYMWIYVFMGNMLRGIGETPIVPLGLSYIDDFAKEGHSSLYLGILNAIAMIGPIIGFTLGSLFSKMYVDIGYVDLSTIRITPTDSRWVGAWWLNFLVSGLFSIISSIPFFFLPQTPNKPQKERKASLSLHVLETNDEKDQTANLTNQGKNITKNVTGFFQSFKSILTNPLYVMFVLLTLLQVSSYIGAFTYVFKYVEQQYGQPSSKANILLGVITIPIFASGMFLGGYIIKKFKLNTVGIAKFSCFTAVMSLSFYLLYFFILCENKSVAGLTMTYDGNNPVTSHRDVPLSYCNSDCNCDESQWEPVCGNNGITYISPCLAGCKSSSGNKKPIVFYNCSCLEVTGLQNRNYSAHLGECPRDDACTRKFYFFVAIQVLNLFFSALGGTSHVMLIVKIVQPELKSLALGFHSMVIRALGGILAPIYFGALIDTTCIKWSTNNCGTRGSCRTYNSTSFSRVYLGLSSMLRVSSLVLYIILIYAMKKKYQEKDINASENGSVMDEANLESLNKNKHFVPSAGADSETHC
# MEASUREMENT_CONDITIONS: chinese hamster, cho, 10 µM
Please state the figure in %; there is no need to write the unit.

O=C([O-])c1ccccc1O.[Na+] [SODIUM SALICYLATE]; 55.28
CCNc1nc(Cl)nc(NC(C)C)n1; 133.8
CC(=O)OCC1=C(C(=O)[O-])N2C(=O)[C@@H](NC(=O)CCC[C@@H](N)C(=O)O)[C@H]2SC1.[Na+]; 89.78
O=c1c(O)c(-c2ccc(O)cc2O)oc2cc(O)cc(O)c12; 24.17
O=C(CCBr)N1CCN(C(=O)CCBr)CC1; 62.45

// switching to the query molecule
// returns reported residual activity for input `CCNC(=O)CC[C@H](N)C(=O)O` 120.6

----------
# SYSTEM_TESTED: Solute carrier organic anion transporter family member 1B3 (Homo sapiens)
# Sequence (Q9NPD5 whole entry): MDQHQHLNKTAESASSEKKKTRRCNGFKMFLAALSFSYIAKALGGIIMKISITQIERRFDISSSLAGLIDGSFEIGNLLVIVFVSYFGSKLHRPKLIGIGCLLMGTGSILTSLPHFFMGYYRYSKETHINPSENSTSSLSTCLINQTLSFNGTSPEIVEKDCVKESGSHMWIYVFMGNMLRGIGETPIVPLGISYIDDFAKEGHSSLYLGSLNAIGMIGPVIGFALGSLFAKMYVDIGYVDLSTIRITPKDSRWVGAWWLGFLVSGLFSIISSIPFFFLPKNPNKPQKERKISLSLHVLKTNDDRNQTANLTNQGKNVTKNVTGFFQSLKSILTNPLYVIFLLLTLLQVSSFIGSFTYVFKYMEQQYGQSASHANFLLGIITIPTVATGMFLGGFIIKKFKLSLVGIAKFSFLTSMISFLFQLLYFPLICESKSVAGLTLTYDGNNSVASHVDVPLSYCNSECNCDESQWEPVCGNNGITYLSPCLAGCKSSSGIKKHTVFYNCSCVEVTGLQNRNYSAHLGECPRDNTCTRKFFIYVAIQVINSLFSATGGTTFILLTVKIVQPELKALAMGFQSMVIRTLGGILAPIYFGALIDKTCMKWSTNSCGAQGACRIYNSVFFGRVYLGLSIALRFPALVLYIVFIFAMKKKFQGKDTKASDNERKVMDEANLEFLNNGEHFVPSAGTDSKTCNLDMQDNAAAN
# MEASUREMENT_CONDITIONS: chinese hamster, cho, 10 µM
Recorded residual activity, one value per entry.
Value expressed in %; do not type the unit.

Cc1nnc(SCC2=C(C(=O)[O-])N3C(=O)[C@@H](NC(=O)Cn4cnnn4)[C@H]3SC2)s1.[Na+] [CEFAZOLIN SODIUM]; 95.92
Nc1ncnc2nc[nH]c12 [ADENINE]; 81.98
COc1cc(N)c(Cl)cc1C(=O)NC1CCN(Cc2ccccc2)CC1.O=C(O)/C=C\C(=O)O [CLEBOPRIDE MALEATE]; 124.4

Endpoint output: residual activity of NNCCc1ccccc1.O=S(=O)(O)O [PHENELZINE SULFATE] . Value? 110.5

For Cc1cc(O)c(C)c(O)c1C(=O)O [3-METHYLORSELLINIC ACID] , what is its reported residual activity? 114.8

Reported residual activity, compound CC[C@@H](C)C(=O)O[C@H]1[C@H](O)[C@H]2[C@@H](CN3C[C@@H](C)CC[C@H]3[C@@]2(C)O)[C@@H]2C[C@]34O[C@]5(O)[C@@H](OC(=O)[C@@](C)(O)CC)CC[C@@]3(C)[C@@H]5[C@@H](OC(C)=O)[C@@H](OC(C)=O)[C@H]4[C@@]21O [PROTOVERATRINE A] : ____ 77.86

What value of measured residual activity is listed for O=c1cc[nH]c(=S)[nH]1 [THIOURACIL] ? 77.62

Requested field: residual activity. Item: OCc1c[nH]c2ccccc12 [INDOLE-3-CARBINOL] 121.9

----------
Listed compounds paired with reported residual activity
# SYSTEM_TESTED: Solute carrier organic anion transporter family member 1B1 (Homo sapiens, UniProt Q9Y6L6)
# MEASUREMENT_CONDITIONS: chinese hamster, cho, 10 µM
Numbers only here, please. The scale is %.

The examples below pair each entry with its known result.
O=c1oc2ccccc2cc1O [3-HYDROXYCOUMARIN]; 126.8
CN1CCN(CC/C=C2/c3ccccc3Sc3ccc(S(=O)(=O)N(C)C)cc32)CC1 [THIOTHIXENE]; 72.97
CC1=CC2C(C(C)C)CC[C@@](C)(O)C2CC1 (some centres undefined); 80.24
NC(=O)c1cc([N+](=O)[O-])cc([N+](=O)[O-])c1 [NITROMIDE]; 103.7
CC1(C)C[C@@H]2C(=O)CC[C@H]3O[C@]3(C)CC[C@H]21 [KOBUSONE]; 64.48
O=C1C(O)=C(O)C(=O)C(O)=C1O [TETROQUINONE]; 121.2

// lookup residual activity for Cc1cc(O)c(C=O)c(O)c1C(=O)O [HAEMATOMMIC ACID] 54.98

Tell me the measured residual activity of Cc1ccc(C)c(OCCCC(C)(C)C(=O)O)c1 [GEMFIBROZIL] , please. 56.21

What measured residual activity goes with CCCCCC[C@H]1C(=O)O[C@H](C)[C@H](NC(=O)c2cccc(NC=O)c2O)C(=O)O[C@@H](C)[C@@H]1OC(=O)CC(C)C [ANTIMYCIN A] ? 31.93

----------
# SYSTEM_TESTED: Solute carrier organic anion transporter family member 1B1 (Homo sapiens, UniProt Q9Y6L6)
# MEASUREMENT_CONDITIONS: chinese hamster, cho, 10 µM
Let's look at some compounds and their measured residual activity.
// return the numeric value with its unit appended

C=CCc1ccc2c(c1)OCO2 [SAFROLE]; 83.42%
NC[C@H]1O[C@H](O[C@H]2[C@H](O)[C@@H](O[C@H]3O[C@H](CO)[C@@H](O)[C@H](N)[C@H]3O)[C@H](N)C[C@@H]2N)[C@H](N)[C@@H](O)[C@@H]1O.O=S(=O)(O)O [BEKANAMYCIN SULFATE]; 101.9%

Consider the compound shown here: `CC(C)CCC[C@@H](C)[C@H]1CC[C@H]2C3=CC[C@H]4C[C@@H](O)CC[C@]4(C)[C@H]3CC[C@]12C` What is its recorded residual activity? 85.16%

Name the reported residual activity value associated with the compound COC(=O)C[C@H]1C(C)(C)[C@@H](OC(C)=O)[C@@H]2CC3C4CC(=O)O[C@@H](c5ccoc5)[C@]4(C)CCC3[C@@]1(C)C2=O (some centres not stated) [DIHYDROFISSINOLIDE] 71.88%

Sample Cl.c1cncc([C@@H]2CCCCN2)c1 [ANABASINE HYDROCHLORIDE] — what was its residual activity? 83.96%

// returns reported residual activity for input CC(=O)Oc1c2c(c(CC=C(C)C)c3c1C(=O)C1=C[C@@H]4CC5C(C)(C)OC(C/C=C(\C)C(=O)O)(C4=O)[C@@]15O3)OC(C)(CCC=C(C)C)C=C2 (some centres not stated) [ACETYL ISOGAMBOGIC ACID] 10.38%

Returns the measured residual activity for the input compound. Input: CCN(CC)CCNc1ccc(CO)c2sc3ccccc3c(=O)c12 [HYCANTHONE] 79.76%

Hello, the source for this data is ChEMBL document CHEMBL3039007, in case you need it.
